molecular target: 5HT-transporter (Homo sapiens, UniProt P31645); construct: Human platelet membranes (Oceanix Biosciences Corporation, Hanover, Md., USA) were thawed; tissue Oceanix Biosciences Corporation, Hanover, Md., USA; host or cells: human platelet membranes; assay: Binding experiment for the 5HT-transporter ([3H]paroxetine, human platelet membranes); conditions: [3H]paroxetine 0.5 nM, 60 min at 25° C., read-out: h-5HTT pIC50 (converted)
Sequence (P31645 whole entry): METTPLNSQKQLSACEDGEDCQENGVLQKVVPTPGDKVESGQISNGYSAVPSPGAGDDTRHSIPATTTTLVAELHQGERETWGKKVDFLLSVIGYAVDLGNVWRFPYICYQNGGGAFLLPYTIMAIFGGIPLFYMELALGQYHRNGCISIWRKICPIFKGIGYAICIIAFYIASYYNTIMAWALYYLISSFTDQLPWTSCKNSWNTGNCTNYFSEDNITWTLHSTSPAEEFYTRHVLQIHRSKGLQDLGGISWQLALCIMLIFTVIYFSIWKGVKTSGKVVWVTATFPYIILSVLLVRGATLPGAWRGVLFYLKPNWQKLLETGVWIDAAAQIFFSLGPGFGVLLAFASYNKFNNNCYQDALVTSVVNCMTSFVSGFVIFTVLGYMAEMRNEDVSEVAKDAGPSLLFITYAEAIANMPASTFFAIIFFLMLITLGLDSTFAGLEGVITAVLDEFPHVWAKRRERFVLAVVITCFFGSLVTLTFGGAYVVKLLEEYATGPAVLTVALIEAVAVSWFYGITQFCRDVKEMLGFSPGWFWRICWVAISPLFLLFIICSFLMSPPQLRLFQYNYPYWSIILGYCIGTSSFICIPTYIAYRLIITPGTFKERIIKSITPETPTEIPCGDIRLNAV
The label TRUE is reserved for IC50 strictly under 60 nM; FALSE covers values equal to or above it.

1) O=c1c(NC2CCN(Cc3ccc4ccccc4c3)CC2)nccn1CCCOCc1ccccc1 [3-11] ... TRUE
2) O=C(CCN(c1nccn(CCC(=O)c2ccccc2)c1=O)C1CCN(Cc2ccc3ccccc3n2)CC1)c1ccccc1 [9-09] ... FALSE
3) CN1CCN(c2ccc(-n3ccnc(NC4CCN(Cc5ccc6ccccc6c5)CC4)c3=O)cc2)CC1 [2-03] ... TRUE
4) O=c1c(NC2CCN(Cc3ccc4ccccc4c3)CC2)nccn1CCCO [3-02] ... FALSE
5) COC(=O)CCn1ccnc(NC2CCN(Cc3ccc4ccccc4c3)CC2)c1=O [3-04] ... FALSE
6) O=c1[nH]ccnc1NC1CCN(Cc2ccc3ncccc3c2)CC1 [9-13] ... FALSE
7) O=C(CCN(c1nccn(CCC(=O)c2ccccc2)c1=O)C1CCN(Cc2ccc3ccccc3c2)CC1)c1ccccc1 [9-03] ... TRUE
8) CCOC(=O)N1CCC(NC(=O)NCc2ccc(-n3ccnc(NC4CCN(Cc5ccc6ccccc6c5)CC4)c3=O)cc2)CC1 [1-55] ... FALSE
9) CCNC(=O)Cc1ccc(-n2ccnc(NC3CCN(Cc4ccc5ccccc5c4)CC3)c2=O)cc1 [1-10] ... TRUE
10) O=c1c(NC2CCN(Cc3ccc4ncccc4c3)CC2)nccn1CCCOc1ccccc1 [9-12] ... FALSE
11) Cc1ccc(CN(Cc2ccc(-n3ccnc(NC4CCN(Cc5ccc6ccccc6c5)CC4)c3=O)cc2)Cc2ccc(C)o2)o1 [1-85] ... TRUE
12) O=C(Cn1ccnc(NC2CCN(Cc3ccc4ccccc4c3)CC2)c1=O)NCc1ccc(F)cc1 [1-66] ... FALSE
13) O=c1c(NC2CCN(Cc3ccc4ccccc4c3)CC2)nccn1-c1cncnc1 [6-08] ... FALSE
14) CC(=O)NCCN(C)Cc1ccc(-n2ccnc(NC3CCN(Cc4ccc5ccccc5c4)CC3)c2=O)cc1 [1-60] ... TRUE
15) CCCC(=O)NCc1ccc(-n2ccnc(NC3CCN(Cc4ccc5ccccc5c4)CC3)c2=O)cc1 [1-24] ... TRUE
16) CC(CC(=O)NCc1ccc(-n2ccnc(NC3CCN(Cc4ccc5ccccc5c4)CC3)c2=O)cc1)CC(C)(C)C (stereo not shown) [1-27] ... TRUE
17) COCCNCc1ccc(-n2ccnc(NC3CCN(Cc4ccc5ccccc5c4)CC3)c2=O)cc1 [1-22] ... TRUE
18) O=C(Cn1ccnc(NC2CCN(Cc3ccc4ccccc4c3)CC2)c1=O)NCCc1ccccc1 [1-71] ... FALSE
19) O=c1c(NC2CCN(Cc3ccc4ccccc4c3)CC2)nccn1CCCNCCOc1ccccc1 [1-77] ... FALSE
20) C=CCSc1ncccc1C(=O)NCc1ccc(-n2ccnc(NC3CCN(Cc4ccc5ccccc5c4)CC3)c2=O)cc1 [1-102] ... TRUE
21) CN(C)CCNC(=O)NCc1ccc(-n2ccnc(NC3CCN(Cc4ccc5ccccc5c4)CC3)c2=O)cc1 [1-44] ... TRUE
22) O=C(Cn1ccnc(NC2CCN(Cc3ccc4ccccc4c3)CC2)c1=O)Nc1ccccc1 [1-64] ... FALSE

---

target: 5HT-transporter (Homo sapiens); construct: Human platelet membranes (Oceanix Biosciences Corporation, Hanover, Md., USA) were thawed; tissue Oceanix Biosciences Corporation, Hanover, Md., USA; host or cells: human platelet membranes; experiment: Binding experiment for the 5HT-transporter ([3H]paroxetine, human platelet membranes); conditions: [3H]paroxetine 0.5 nM, 60 min at 25° C., read-out: h-5HTT pIC50 (converted)
measured.property: IC50 (µM)

1) CN(CC(=O)N(C)C)Cc1ccc(-n2ccnc(NC3CCN(Cc4ccc5ccccc5c4)CC3)c2=O)cc1 ... 0.0501
2) Cc1ccc(CNCc2ccc(-n3ccnc(NC4CCN(Cc5ccc6ccccc6c5)CC4)c3=O)cc2F)o1 ... 0.00316
3) O=C(CCN(c1nccn(CCC(=O)c2ccccc2)c1=O)C1CCN(Cc2ccnc3ccccc23)CC1)c1ccccc1 ... 0.2
4) CCOC(=O)CCCCn1ccnc(NC2CCN(Cc3cnc4ccccc4c3)CC2)c1=O ... 2
5) O=c1c(NC2CCN(Cc3ccc4ccccc4c3)CC2)nccn1Cc1cccc(Br)c1 ... 0.126
6) O=c1c(NC2CCN(Cc3ccc4ccccc4c3)CC2)nccn1-c1ccc(CNCC2CCCO2)cc1 (centres unmarked) [1-79b] ... 0.00251
7) O=C(Cn1ccnc(NC2CCN(Cc3ccc4ccccc4c3)CC2)c1=O)N1CCC(Cc2ccccc2)CC1 ... 0.2
8) O=C1c2ccccc2C(=O)N1CCCn1ccnc(NC2CCN(Cc3ccc4ncccc4c3)CC2)c1=O ... 0.0501
9) O=C(NCCN1CCOCC1)c1ccc(-n2ccnc(NC3CCN(Cc4ccc5ccccc5c4)CC3)c2=O)cc1 ... 0.0158
10) O=C(Cn1ccnc(NC2CCN(Cc3ccc4ccccc4c3)CC2)c1=O)NCC(c1ccccc1)c1ccccc1 ... 0.0794
11) COC(=O)c1ccc(-c2c(Cl)nc(NC3CCN(Cc4ccc5ccccc5c4)CC3)c(=O)n2Cc2ccc(OC)cc2)cc1 ... 0.794

---

Target: human adrenergic-α2C receptor (Homo sapiens, UniProt P18825)
Construct: expressed in transfected cells; host or cells: CHO cells, stably transfected; membrane preparation
Sequence (P18825 1-462): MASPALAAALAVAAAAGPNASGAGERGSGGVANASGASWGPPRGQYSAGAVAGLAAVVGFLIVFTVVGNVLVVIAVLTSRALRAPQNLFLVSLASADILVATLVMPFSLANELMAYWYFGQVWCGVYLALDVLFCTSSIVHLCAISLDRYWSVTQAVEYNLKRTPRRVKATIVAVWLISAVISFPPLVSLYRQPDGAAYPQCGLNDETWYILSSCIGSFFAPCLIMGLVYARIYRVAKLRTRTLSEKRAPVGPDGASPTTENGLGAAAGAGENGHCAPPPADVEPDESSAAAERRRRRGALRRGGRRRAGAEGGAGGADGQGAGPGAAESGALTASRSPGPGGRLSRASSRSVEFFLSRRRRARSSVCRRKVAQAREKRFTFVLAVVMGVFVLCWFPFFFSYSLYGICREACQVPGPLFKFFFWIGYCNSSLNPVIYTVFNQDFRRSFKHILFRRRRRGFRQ
Assay: Radioligand binding experiment for hα2C-adrenoceptor ([3H]raulwolscine)
Details: [3H]raulwolscine 1 nM, 60 minutes at 25° C.; read-out: h-α2C pIC50 (converted)
// returns rule not met unless IC50 is strictly below 40 nM, in which case rule met

1) O=c1c(N2CCN(Cc3ccc4ccccc4n3)CC2)nccn1Cc1ccccc1 [9-29] ... rule not met
2) O=C(CCN1CCOCC1)Nc1ccc(-n2ccnc(NC3CCN(Cc4ccc5ccccc5c4)CC3)c2=O)cc1 [1-97] ... rule met
3) O=C(Cn1ccnc(NC2CCN(Cc3ccc4ccccc4c3)CC2)c1=O)N1CCN(Cc2ccccc2)CC1 [2-06] ... rule met
4) O=C1c2ccccc2C(=O)N1CCCn1ccnc(NC2CCN(Cc3cnc4ccccc4c3)CC2)c1=O [9-27] ... rule not met
5) CNCCCn1ccnc(NC2CCN(Cc3ccc4ccccc4c3)CC2)c1=O [1-04] ... rule met
6) COc1ccc(Cn2c(-c3cccc(CN4CCCCC4)c3)c(Cl)nc(NC3CCN(Cc4ccc5ccccc5c4)CC3)c2=O)cc1 [8-09] ... rule not met
7) O=c1c(NC2CCN(Cc3ccc4ccccc4c3)CC2)nccn1-c1ccc(NCCN2CCC(F)CC2)cc1 [1-89] ... rule met
8) O=C1c2ccccc2C(=O)N1CC#CCn1ccnc(NC2CCN(Cc3ccc4ncccc4c3)CC2)c1=O [9-11] ... rule met
9) O=c1[nH]c(-c2cccc(CN3CCOCC3)c2)c(Cl)nc1NC1CCN(Cc2ccc3ccccc3c2)CC1 [7-08] ... rule not met
10) CN(C)C(=O)Cn1ccnc(N2CCN(Cc3cccc4ccccc34)CC2)c1=O [9-24] ... rule not met
11) Cn1ccnc1CN1CCc2ccc(-n3ccnc(NC4CCN(Cc5ccc6ccccc6c5)CC4)c3=O)cc2C1 [6-15] ... rule met
12) CC(=O)Cn1ccnc(NC2CCN(Cc3ccc4ccccc4c3)CC2)c1=O [5-03] ... rule not met
13) O=c1c(NC2CCN(Cc3ccc4ccccc4c3)CC2)nccn1-c1ccncc1 [6-07] ... rule not met
14) O=C(CCN(c1nccn(CCC(=O)c2ccccc2)c1=O)C1CCN(Cc2ccc3ccccc3n2)CC1)c1ccccc1 [9-09] ... rule not met
15) O=c1[nH]c(-c2cccc(CNCCF)c2)c(Cl)nc1NC1CCN(Cc2ccc3ccccc3c2)CC1 [7-03] ... rule not met
16) CCOC(CN(Cc1ccccc1)C(=O)Cn1ccnc(NC2CCN(Cc3ccc4ccccc4c3)CC2)c1=O)OCC [1-20] ... rule met
17) CCCC(=O)NCc1ccc(-n2ccnc(NC3CCN(Cc4ccc5ccccc5c4)CC3)c2=O)cc1 [1-24] ... rule met
18) COC(=O)c1ccc(-c2c(Cl)nc(NC3CCN(Cc4ccc5ccccc5c4)CC3)c(=O)n2Cc2ccc(OC)cc2)cc1 [8-04] ... rule not met
19) O=C(NCc1ccc(-n2ccnc(NC3CCN(Cc4ccc5ccccc5c4)CC3)c2=O)cc1)c1ccncc1 [1-101] ... rule met
20) O=c1c(NC2CCN(Cc3ccc4ccccc4c3)CC2)nccn1CCOc1ccccc1 [3-09] ... rule not met
21) O=c1c(NC2CCN(Cc3ccc4ccccc4c3)CC2)nccn1CCCC(c1ccc(F)cc1)c1ccc(F)cc1 [5-07] ... rule not met
22) CN(C(=O)Cn1ccnc(NC2CCN(Cc3ccc4ccccc4c3)CC2)c1=O)c1ccccc1 [1-63] ... rule met
23) CC(C)(C)OC(=O)NCc1ccc(Cn2ccnc(NC3CCN(Cc4ccc5ccccc5c4)CC3)c2=O)cc1 [1-34] ... rule not met

Data credit: patent US20080269251A1
